Sourced from ChEMBL document CHEMBL3608214

Protein target, amino acids: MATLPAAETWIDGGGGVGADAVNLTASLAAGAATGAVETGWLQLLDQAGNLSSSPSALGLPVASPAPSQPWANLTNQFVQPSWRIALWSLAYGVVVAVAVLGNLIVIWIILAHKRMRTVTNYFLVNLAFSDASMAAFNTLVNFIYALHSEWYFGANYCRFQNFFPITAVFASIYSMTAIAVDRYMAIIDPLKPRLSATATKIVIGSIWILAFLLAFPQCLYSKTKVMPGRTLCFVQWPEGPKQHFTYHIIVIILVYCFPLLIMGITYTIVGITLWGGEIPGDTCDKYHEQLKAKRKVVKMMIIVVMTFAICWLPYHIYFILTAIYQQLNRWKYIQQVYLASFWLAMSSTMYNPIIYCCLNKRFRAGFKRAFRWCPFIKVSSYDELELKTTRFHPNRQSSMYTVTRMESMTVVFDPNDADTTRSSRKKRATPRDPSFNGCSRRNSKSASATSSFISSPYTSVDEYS
Exercise: state measured pKi for each of the compounds provided.
pKi here is simply -log10 of the concentration when that concentration is written in mol/L.

Query: Identify measured pKi associated with `Cc1nsc(-c2nnc3n2CCN(C(=O)c2ccc(F)cc2)[C@@H]3C)n1`
Reply: 7.60

Query: Identify measured pKi associated with `Cc1nsc(-c2nnc3n2CCN(C(=O)c2ccc(Cl)cc2)[C@@H]3C)n1`
Reply: 7.70

Query: Identify measured pKi associated with `Cc1noc(-c2nnc3n2CCN(C(=O)c2ccc(F)cc2)[C@@H]3C)n1`
Reply: 6.90

Query: Identify measured pKi associated with `Cc1nsc(-c2nnc3n2CCN(C(=O)c2ccccc2)[C@@H]3C)n1`
Reply: 7.30

Query: Identify measured pKi associated with `Cc1nsc(-c2nnc3n2CCN(C(=O)c2ccc(F)cc2)C3)n1`
Reply: 7.00

Query: Identify measured pKi associated with `Cc1nsc(-c2nnc3n2CCN(C(=O)c2ccc(F)cc2)[C@@H]3CCO)n1`
Reply: 7.50

---

# tested.system: Neuromedin-K receptor (Rattus norvegicus, UniProt P16177)
# Sequence (P16177 whole entry): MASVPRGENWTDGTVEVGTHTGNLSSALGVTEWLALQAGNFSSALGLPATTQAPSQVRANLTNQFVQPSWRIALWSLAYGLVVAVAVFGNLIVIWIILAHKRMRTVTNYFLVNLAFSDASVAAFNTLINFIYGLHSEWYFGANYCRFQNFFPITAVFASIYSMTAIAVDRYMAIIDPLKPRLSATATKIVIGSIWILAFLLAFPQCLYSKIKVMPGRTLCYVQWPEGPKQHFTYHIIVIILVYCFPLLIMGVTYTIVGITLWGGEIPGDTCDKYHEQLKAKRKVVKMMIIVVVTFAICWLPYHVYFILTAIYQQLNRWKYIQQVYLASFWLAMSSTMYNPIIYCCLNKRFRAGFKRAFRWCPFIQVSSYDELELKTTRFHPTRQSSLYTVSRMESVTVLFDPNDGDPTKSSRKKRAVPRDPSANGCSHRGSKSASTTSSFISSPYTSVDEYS
Exercise: state measured pKi for each of the compounds provided.
pKi here is simply -log10 of the concentration when that concentration is written in mol/L.

Query: Identify measured pKi associated with Cc1nsc(-c2nnc3n2CCN(C(=O)c2ccc(F)cc2)[C@@H]3C)n1 [FEZOLINETANT]
Reply: 6.66

Query: Identify measured pKi associated with `Cc1nsc(-c2nnc3n2CCN(C(=O)c2ccc(F)cc2)[C@@H]3CCO)n1`
Reply: 6.61

Query: Identify measured pKi associated with `Cc1nsc(-c2nnc3n2CCN(C(=O)c2ccc(F)cc2)C3)n1`
Reply: 5.69

Query: Identify measured pKi associated with `Cc1nsc(-c2nnc3n2CCN(C(=O)c2ccccc2)[C@@H]3C)n1`
Reply: 6.24

Query: Identify measured pKi associated with `C[C@@H]1c2nnc(-c3nc(C(F)(F)F)ns3)n2CCN1C(=O)c1ccc(F)cc1`
Reply: 7.07

---

Measured IC50 on Cytochrome P450 3A4 (Homo sapiens, UniProt P08684) follows.
Sequence (P08684 whole entry): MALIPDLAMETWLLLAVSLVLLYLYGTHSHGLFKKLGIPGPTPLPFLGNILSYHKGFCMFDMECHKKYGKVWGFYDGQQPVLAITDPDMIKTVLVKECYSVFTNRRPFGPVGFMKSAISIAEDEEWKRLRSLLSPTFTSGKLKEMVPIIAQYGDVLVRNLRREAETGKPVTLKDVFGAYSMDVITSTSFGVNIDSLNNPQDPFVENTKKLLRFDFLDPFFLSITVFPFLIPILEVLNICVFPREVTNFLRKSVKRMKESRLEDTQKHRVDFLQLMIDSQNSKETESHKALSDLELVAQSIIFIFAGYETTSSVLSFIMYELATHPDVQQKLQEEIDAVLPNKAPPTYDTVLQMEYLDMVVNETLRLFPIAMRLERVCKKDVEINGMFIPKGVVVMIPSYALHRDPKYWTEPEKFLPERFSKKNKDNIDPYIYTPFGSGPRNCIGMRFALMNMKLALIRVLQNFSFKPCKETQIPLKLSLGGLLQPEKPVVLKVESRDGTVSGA

Query: // fetch IC50; item: `Cc1noc(-c2nnc3n2CCN(C(=O)c2ccc(F)cc2)[C@@H]3C)n1` ; system: Cytochrome P450 3A4 (Homo sapiens, UniProt P08684)
Reply: > 100 µM

Query: // fetch IC50; item: `Cc1nsc(-c2nnc3n2CCN(C(=O)c2ccc(F)cc2)C3(C)C)n1` ; system: Cytochrome P450 3A4 (Homo sapiens, UniProt P08684)
Reply: > 100 µM

---

Exercise: state measured pIC50 for each of the compounds provided.
pIC50 here is simply -log10 of the concentration when that concentration is written in mol/L.

Query: // fetch pIC50; item: `Cc1nsc(-c2nnc3n2CCN(C(=O)c2ccc(F)cc2)C3(C)C)n1` ; system: Cytochrome P450 2C19 (Homo sapiens, UniProt P33261)
Sequence (P33261 whole entry): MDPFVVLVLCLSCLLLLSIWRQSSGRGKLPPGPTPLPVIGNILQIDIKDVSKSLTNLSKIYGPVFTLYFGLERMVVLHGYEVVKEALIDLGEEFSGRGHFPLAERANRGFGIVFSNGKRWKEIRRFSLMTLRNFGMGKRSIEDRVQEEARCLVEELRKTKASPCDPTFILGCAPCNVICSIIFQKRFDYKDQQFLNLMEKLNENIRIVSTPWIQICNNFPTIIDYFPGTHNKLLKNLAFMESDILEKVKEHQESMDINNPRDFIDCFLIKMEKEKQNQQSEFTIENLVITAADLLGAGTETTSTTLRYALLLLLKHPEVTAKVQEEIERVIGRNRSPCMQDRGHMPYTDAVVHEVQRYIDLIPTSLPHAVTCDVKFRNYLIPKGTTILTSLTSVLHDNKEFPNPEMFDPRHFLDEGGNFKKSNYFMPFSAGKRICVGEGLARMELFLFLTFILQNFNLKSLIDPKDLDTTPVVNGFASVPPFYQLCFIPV
Reply: 5.40

Query: // fetch pIC50; item: `Cc1noc(-c2nnc3n2CCN(C(=O)c2ccc(F)cc2)[C@@H]3C)n1` ; system: Cytochrome P450 2C19 (Homo sapiens, UniProt P33261)
Reply: 4.47

---

# experimental.details: Half life in rat at 1 mg/kg, iv
# condition.details: in vivo
measured.quantity: half-life (h)
Write the number in h without appending the unit.

Query: Identify measured half-life associated with `Cc1nsc(-c2nnc3n2CCN(C(=O)c2ccc(F)cc2)[C@@H]3C)n1`
Reply: 4.65

---

# experimental.details: Volume of distribution at steady state in monkey at 10 mg/kg, iv
# condition.details: rhesus monkey, in vivo
measured.quantity: Vd (L/kg)
Write the number in L/kg without appending the unit.

Query: Identify measured Vd associated with `Cc1nc(-c2nnc3n2CCN(C(=O)c2ccc(-c4cccs4)cc2)[C@@H]3C)cs1`
Reply: 1.52

---

# experimental.details: Unbound fraction in monkey plasma at 5 mg/kg, po after 90 mins
# condition.details: rhesus monkey
measured.quantity: fraction unbound at […]
No unit in the answer, only the number.

Query: Identify measured fraction unbound at […] associated with `Cc1nc(-c2nnc3n2CCN(C(=O)c2ccc(-c4cccs4)cc2)[C@@H]3C)cs1`
Reply: 0.043

---

# Tested on: Rattus norvegicus
# experimental.details: Inhibition of luteinizing hormone release in orally dosed rat
# condition.details: po, read-out: MED
Exercise: state measured minimal effective dose for each of the molecules provided.
Write the number in mg/kg without appending the unit.

Query: // fetch minimal effective dose; item: `Cc1nsc(-c2nnc3n2CCN(C(=O)c2ccc(F)cc2)C3)n1` ; system: Rattus norvegicus
Reply: 30

Query: // fetch minimal effective dose; item: `C[C@@H]1c2nnc(-c3nc(C(F)(F)F)ns3)n2CCN1C(=O)c1ccc(F)cc1` ; system: Rattus norvegicus
Reply: 10

Query: // fetch minimal effective dose; item: `Cc1nc(-c2nnc3n2CCN(C(=O)c2ccc(-c4cccs4)cc2)[C@@H]3C)cs1` ; system: Rattus norvegicus
Reply: 60

Query: // fetch minimal effective dose; item: `Cc1nsc(-c2nnc3n2CCN(C(=O)c2ccccc2)[C@@H]3C)n1` ; system: Rattus norvegicus
Reply: 30

---

Target chain: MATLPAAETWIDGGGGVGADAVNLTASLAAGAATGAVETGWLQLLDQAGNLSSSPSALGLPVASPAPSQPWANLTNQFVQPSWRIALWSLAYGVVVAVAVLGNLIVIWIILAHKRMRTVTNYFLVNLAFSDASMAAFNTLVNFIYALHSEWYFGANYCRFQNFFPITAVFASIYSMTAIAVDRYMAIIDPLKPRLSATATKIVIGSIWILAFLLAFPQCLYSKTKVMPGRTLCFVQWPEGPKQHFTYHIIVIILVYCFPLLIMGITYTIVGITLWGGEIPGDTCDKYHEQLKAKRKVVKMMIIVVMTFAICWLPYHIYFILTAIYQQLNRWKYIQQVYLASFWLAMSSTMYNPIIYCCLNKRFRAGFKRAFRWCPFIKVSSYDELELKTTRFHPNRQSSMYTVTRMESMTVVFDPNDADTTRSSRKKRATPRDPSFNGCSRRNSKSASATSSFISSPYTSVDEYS
Exercise: state measured pIC50 for each of the compounds provided.
pIC50 here is simply -log10 of the concentration when that concentration is written in mol/L.

Query: Identify measured pIC50 associated with `Cc1nsc(-c2nnc3n2CCN(C(=O)c2ccc(F)cc2)C3)n1`
Reply: 6.80

Query: Identify measured pIC50 associated with `Cc1nsc(-c2nnc3n2CCN(C(=O)c2ccccc2)[C@@H]3C)n1`
Reply: 7.20

Query: Identify measured pIC50 associated with `Cc1nsc(-c2nnc3n2CCN(C(=O)c2ccc(F)cc2)[C@@H]3C)n1`
Reply: 7.70

Query: Identify measured pIC50 associated with `Cc1nsc(-c2nnc3n2CCN(C(=O)c2ccc(F)cc2)[C@@H]3CCO)n1`
Reply: 7.10

Query: Identify measured pIC50 associated with `CC(C)c1noc(-c2nnc3n2CCN(C(=O)c2ccc(F)cc2)[C@@H]3C)n1`
Reply: 7.40
